# TEST SYSTEM: Hsp90
# ASSAY REMARKS: Hsp90 Binding Assay (fluorescence polarization, cy3B-GM displacement, SKBr3 lysate)
# Set-up: species or system human
# EXPERIMENTAL CONTEXT: human cancer cell lysate (SKBr3), cy3B-GM displacement, 4° C., 24 h; read-out: SKBr3 Binding Affinity
MEASURED PROPERTY: IC50 (nM)

CC(C)NCCCn1c(Sc2cc3c(cc2N(C)C)OCO3)nc2c(N)ncnc21    55.3
CN(C)c1cc2c(cc1Sc1nc3c(N)ncnc3n1CCCNC(C)(C)C)OCO2    45.4
